For each record, write down the corresponding Kd.
Target: Lipocalin-2 (LCN2, NGAL) (human, UniProt P80188 21-198)
Sequence (P80188 21-198): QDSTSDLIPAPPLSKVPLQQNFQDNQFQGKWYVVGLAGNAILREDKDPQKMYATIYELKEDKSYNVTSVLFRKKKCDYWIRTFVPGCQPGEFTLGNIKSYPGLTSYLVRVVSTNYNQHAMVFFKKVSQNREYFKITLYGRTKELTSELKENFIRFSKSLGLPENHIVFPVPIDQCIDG
Assay: SPR (BIAcore 3000, CM5 chip); SPR BIAcore 3000, 24 C, LCN2 amine-coupled to CM5 chip; running buffer for the Kd assay not stated (HBS-EP used for SA-chip activation)
Details: protein: recombinant; tags: C-terminal polyhistidine
Be sure to follow the number with its unit.

Some binders with known Kd results, for comparison:
BINDER | Kd
LCN2_apta16 (ssDNA) DNA: ATACCAGCTTATTCAATTCCGCGTCACCTCACTGCTCCCACCTGCGTTGCGTCTCTAAGATAGTAAGTGCAATCT | 220 nM
LCN2_apta2 (ssDNA) DNA: ATACCAGCTTATTCAATTCCACAGTAGGTGAGGTTCACTGAGTTATCCATTGTTGGCAAGATAGTAAGTGCAATCT | 0.00224 nM

Form: binder = LCN2_apta22 (ssDNA) DNA: ATACCAGCTTATTCAATTCCAACGAGGATGCCAAAGAAAGGTGAGGTGGTCCTAAGGGAGATAGTAAGTGCAATCT ; Kd = 8440 nM
